src = PubChem BioAssay (NCI)

This section presents compounds with their documented TGI values.
# Tested on: CAKI-1 renal
# methodNotes: NCI tumour cell line growth inhibition, 48 h

| compound | experimentalTarget | TGI |
| --- | --- | --- |
| O=C1OC(c2ccccc2Br)=N/C1=C/c1ccccc1 | CAKI-1 renal | > 100 µM |

For this compound ( CC(N)C(C)c1ccccc1 (centres undefined) ), measured TGI is > 100 µM

Entry CCOC(=O)CC1Nc2ccccc2C12CCc1c([nH]c3ccccc13)C2C(=O)OCC (centres undefined) , TGI reported as > 100 µM

Data point: O=C(N/N=C/c1ccncc1)c1ccc(F)cc1 ; TGI = > 40 µM
